Reference source for all entries: patent US20180171001A1

biological target: Env of HIV-1 strain H086.8 (HIV-1); experiment: cell-based or functional assay
Recorded neutralization IC50 for the following binders
measurementName: neutralization IC50

>>> result("γ15κ3 (antibody, V domains shown) VH: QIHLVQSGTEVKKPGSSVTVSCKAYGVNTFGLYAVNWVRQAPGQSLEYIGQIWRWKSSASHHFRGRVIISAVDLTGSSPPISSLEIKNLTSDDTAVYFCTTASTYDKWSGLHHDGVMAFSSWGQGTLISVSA VL: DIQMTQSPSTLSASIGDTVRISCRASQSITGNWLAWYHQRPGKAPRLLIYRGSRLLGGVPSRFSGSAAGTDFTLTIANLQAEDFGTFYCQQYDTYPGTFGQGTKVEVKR")
"> 15 µg/mL"
>>> result("8ANC3430 (antibody, V domains shown) VH: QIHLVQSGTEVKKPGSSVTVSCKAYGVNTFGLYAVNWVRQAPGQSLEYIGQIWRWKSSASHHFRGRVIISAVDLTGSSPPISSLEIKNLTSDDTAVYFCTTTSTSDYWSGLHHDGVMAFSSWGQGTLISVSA VL: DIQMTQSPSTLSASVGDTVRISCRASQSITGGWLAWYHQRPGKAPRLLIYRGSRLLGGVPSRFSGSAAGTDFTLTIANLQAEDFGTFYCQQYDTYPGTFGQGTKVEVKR")
"> 23 µg/mL"
>>> result("γ3κ5 (antibody, V domains shown) VH: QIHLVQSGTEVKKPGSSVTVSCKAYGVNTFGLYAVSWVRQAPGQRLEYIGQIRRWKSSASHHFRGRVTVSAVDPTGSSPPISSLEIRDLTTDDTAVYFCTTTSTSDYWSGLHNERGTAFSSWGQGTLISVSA VL: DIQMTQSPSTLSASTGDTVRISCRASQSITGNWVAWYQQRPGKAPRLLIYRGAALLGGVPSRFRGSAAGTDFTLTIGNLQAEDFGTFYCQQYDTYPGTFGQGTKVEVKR")
"0.434 µg/mL"
